Overview of recorded logP for various compounds
experiment-summary: n-Octanol-water partition coefficient, log P of the compound by HPLC analysis
Assay type: physicochemical
Provide a numeric answer; units are not to be included.

Given CO[C@@H](CC[C@H](C)[C@H]1O[C@@]23C[C@H](OC(=O)C[C@H]([C@@H](C)O)OC(=O)C[C@](O)(O2)[C@H](C)CC3(C)C)[C@@H]1C)c1cccc(O)c1 [DEBROMOAPLYSIATOXIN] , respond with its logP.
4.4

Given C[C@H]1[C@@H]2C[C@@]3(O[C@H](CCC3(C)C)CC(=O)O[C@@H](CO)CC(=O)O2)O[C@@H]1CCCCc1cccc(O)c1 , respond with its logP.
3.6

Given CC1(C)CC[C@@H]2CC(=O)O[C@@H](CO)CC(=O)O[C@@H]3C[C@@H](CCCCc4cccc(O)c4)O[C@@]1(C3)O2 , respond with its logP.
3.3

Given C[C@@H]1CC(C)(C)[C@@]23C[C@@H](C[C@@H](CCCCc4cccc(O)c4)O2)OC(=O)C[C@H](CO)OC(=O)C[C@@H]1O3 , respond with its logP.
3.7
